Target Desc: T1, recombinant cynomolgus monkey C5 (cynomolgus monkey, UniProt P01031 19-1676 (human entry), limits assumed)
T1 construct: also called cynoC5
T1 chain: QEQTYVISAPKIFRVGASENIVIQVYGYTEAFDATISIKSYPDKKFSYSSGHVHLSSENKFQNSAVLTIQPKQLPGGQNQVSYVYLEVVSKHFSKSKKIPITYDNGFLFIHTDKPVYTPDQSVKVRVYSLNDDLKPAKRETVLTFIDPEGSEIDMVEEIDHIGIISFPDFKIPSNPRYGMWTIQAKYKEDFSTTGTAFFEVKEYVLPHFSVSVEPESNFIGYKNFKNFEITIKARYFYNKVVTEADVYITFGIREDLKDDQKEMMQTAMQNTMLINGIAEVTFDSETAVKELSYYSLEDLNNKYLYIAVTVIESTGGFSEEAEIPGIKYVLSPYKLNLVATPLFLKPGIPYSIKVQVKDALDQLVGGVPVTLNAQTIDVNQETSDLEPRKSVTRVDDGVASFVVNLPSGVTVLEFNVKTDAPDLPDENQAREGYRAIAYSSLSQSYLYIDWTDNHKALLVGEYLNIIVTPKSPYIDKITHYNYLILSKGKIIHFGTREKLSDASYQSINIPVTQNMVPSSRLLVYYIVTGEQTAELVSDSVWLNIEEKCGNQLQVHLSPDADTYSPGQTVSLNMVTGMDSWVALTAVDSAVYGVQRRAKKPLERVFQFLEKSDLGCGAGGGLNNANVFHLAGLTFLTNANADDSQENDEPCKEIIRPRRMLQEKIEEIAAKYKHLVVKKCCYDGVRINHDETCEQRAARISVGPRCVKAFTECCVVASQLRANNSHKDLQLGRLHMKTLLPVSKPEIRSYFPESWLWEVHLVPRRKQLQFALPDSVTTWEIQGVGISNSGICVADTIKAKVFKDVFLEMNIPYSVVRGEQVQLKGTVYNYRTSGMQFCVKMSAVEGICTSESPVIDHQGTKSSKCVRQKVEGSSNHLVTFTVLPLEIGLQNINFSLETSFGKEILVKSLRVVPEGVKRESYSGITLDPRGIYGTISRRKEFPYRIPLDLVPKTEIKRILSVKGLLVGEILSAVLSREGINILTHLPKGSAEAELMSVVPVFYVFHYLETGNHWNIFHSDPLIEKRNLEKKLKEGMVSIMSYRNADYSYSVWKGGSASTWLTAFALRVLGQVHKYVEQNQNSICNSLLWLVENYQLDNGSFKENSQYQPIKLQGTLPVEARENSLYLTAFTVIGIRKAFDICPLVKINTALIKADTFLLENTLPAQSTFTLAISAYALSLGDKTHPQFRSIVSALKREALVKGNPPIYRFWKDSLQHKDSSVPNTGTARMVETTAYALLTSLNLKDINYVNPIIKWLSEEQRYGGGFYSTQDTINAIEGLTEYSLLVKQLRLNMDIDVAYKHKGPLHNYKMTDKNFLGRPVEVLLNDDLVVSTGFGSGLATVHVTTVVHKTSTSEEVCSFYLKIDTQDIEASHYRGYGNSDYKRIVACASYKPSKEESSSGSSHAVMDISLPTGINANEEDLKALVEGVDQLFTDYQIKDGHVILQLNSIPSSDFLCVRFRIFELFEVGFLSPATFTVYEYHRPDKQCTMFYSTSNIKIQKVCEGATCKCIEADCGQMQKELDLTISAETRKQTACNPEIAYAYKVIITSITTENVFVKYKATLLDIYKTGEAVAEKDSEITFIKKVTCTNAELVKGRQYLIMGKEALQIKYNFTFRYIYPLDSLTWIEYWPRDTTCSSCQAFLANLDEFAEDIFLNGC
Run Description: SPR (BIACORE T200), antibody captured by ProA/G, recombinant cynoC5 injected, 37 degrees C, pH7.4
Measured Property: koff (s⁻¹)
Your answer is read as s⁻¹, so omit the unit and give the number.

| Binder | Experimental Result |
| --- | --- |
| CFA0501 (antibody, V domains shown) VH: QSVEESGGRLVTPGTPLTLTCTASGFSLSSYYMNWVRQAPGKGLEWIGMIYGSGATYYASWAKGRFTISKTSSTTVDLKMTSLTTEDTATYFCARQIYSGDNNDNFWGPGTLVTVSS VL: AYDMTQTPASVEVAVGGTVTINCQASESISNWLAWYQQKPGQRPKLLIYRASTLASGVSSRFKGSGSGTQFTLTISGVECDDAATYYCQQDYSSSNVDNTFGGGTKVVVE | 0.00156 |

Prompt: koff lookup needed for CFA0666 (antibody, V domains shown) VH: QSVEESGGRLVTPGTPLTLTCTVSGFSLSTYAMGWVRQAPGKGLEWIGTIDTGDNSFYANWAKGRFTISKTSTTVDLKITSPTAEDTATYFCARNDGSVYNLFNLWGPGTLVTVSS VL: DVVMTQTPASVSAAVGGTVTIKCQASENIYSALSWYQQKPGLRPRLLIYYASTLASGVPSRFKGSRSGTEFTLTISDLECADAATYYCQQYYDINSVDNTFGGGTKVVVE , thanks.
Completion: 0.000493
